System Tested: Pseudomonas aeruginosa LpxC enzyme (Pseudomonas aeruginosa (strain ATCC 15692 / DSM 22644 / CIP 104116 / JCM 14847 / LMG 12228 / 1C / PRS 101 / PAO1), UniProt P47205)
Procedure Details: biochemical
Format: biochemical
Condition Notes: inhibitory activity on Pseudomonas aeruginosa LpxC enzyme, class symbols A/B/C; read-out: Enzyme inhibitory activity
pIC50: −log10 of the molar value.
Parameter Measured: pIC50

Here is how some compounds turned out for pIC50.
Recall and state the measured pIC50 for CNC(=O)C(C(=O)NO)N(C)C(=O)c1ccc(-c2ccc(NC)c(Cl)c2)cc1 (centres unmarked) . > 8.00

Recall and state the measured pIC50 for CNC(=O)C(C(=O)NO)N(C)C(=O)c1ccc(-c2ccc(OCCN3CCOCC3)cc2)cc1 (centres unmarked) . 7.00 to 8.00

Recall and state the measured pIC50 for CNC(=O)C(C(=O)NO)N(C)C(=O)c1cnc(-c2ccccc2)cn1 (centres unmarked) . < 7.00

---
Recall and state the measured pIC50 for `CNC(=O)[C@](C)(C(=O)NO)N(C)C(=O)c1ccc(C#Cc2ccc(CN3CCCOCC3)cc2)cc1` . > 8.00

Recall and state the measured pIC50 for CN(C(=O)c1ccc(-c2ccccc2)cc1)C(C(=O)NO)C(=O)NC1CC1 (centres unmarked) . < 7.00

Recall and state the measured pIC50 for CNC(=O)C(C(=O)NO)N(C)C(=O)c1ccc(-c2ncccn2)cc1 (centres unmarked) . < 7.00

Recall and state the measured pIC50 for CNC(=O)C(NC(=O)c1ccc(-c2ccc(OCCOCCOCCO)cc2)cc1)C(=O)NO (centres unmarked) . 7.00 to 8.00

Recall and state the measured pIC50 for CCCCCCCCOc1ccc(C(=O)N(C)C(C(=O)NC)C(=O)NO)cc1 (centres unmarked) . 7.00 to 8.00

---

System Tested: Pseudomonas aeruginosa LpxC enzyme (Pseudomonas aeruginosa (strain ATCC 15692 / DSM 22644 / CIP 104116 / JCM 14847 / LMG 12228 / 1C / PRS 101 / PAO1))
Procedure Details: biochemical
Assay type: biochemical
Condition Notes: inhibitory activity on Pseudomonas aeruginosa LpxC enzyme, class symbols A/B/C; read-out: Enzyme inhibitory activity
pIC50: −log10 of the molar value.
Reported values of pIC50 for individual entries

Here is how some compounds turned out for pIC50.
Recall and state the measured pIC50 for O=C(NC(C(=O)NO)C(=O)NCC1COc2ccccc2O1)c1ccc(-c2ccc(OCCO)cc2)cc1 (centres unmarked) . > 8.00

Recall and state the measured pIC50 for CNC(=O)C(C)(C(=O)NO)N(C)C(=O)c1ccc(-c2ccccc2)cc1 (centres unmarked) . > 8.00

Recall and state the measured pIC50 for CNC(=O)C(C(=O)NO)N(C)C(=O)c1ccc(-c2ccc3c(c2)cc(C)n3C)cc1 (centres unmarked) . > 8.00

Recall and state the measured pIC50 for CNC(=O)C(C(=O)NO)N(C)C(=O)c1ccc(-c2ccc(OC(C)C)cc2)cc1 (centres unmarked) . > 8.00

Recall and state the measured pIC50 for CNC(=O)C(C(=O)NO)N(C)C(=O)c1ccc(-c2ccc(OCCOCCO)cc2)cc1 (centres unmarked) . 7.00 to 8.00

---
Recall and state the measured pIC50 for CCC(F)(F)c1ccc(-c2ccc(C(=O)N(C)C(C(=O)NC)C(=O)NO)cc2)cc1 (centres unmarked) . > 8.00

Recall and state the measured pIC50 for CNC(=O)C(C(=O)NO)N(C)C(=O)c1ccc(-c2ccc(SCCOC)cc2)cc1 (centres unmarked) . > 8.00

Recall and state the measured pIC50 for O=C(NC(C(=O)NO)C(=O)NCC1CC1)c1ccc(-c2ccc(OCCO)cc2)cc1 (centres unmarked) . 7.00 to 8.00

---

System Tested: Pseudomonas aeruginosa LpxC enzyme (Pseudomonas aeruginosa (strain ATCC 15692 / DSM 22644 / CIP 104116 / JCM 14847 / LMG 12228 / 1C / PRS 101 / PAO1), UniProt P47205)
Procedure Details: biochemical
Assay type: biochemical
Condition Notes: inhibitory activity on Pseudomonas aeruginosa LpxC enzyme, class symbols A/B/C; read-out: Enzyme inhibitory activity
pIC50: −log10 of the molar value.
Reported values of pIC50 for individual entries

Here is how some compounds turned out for pIC50.
Recall and state the measured pIC50 for CNC(=O)C(C(=O)NO)N(C)C(=O)c1ccc(N2CC(c3ccccc3)C2)cc1 (centres unmarked) . 7.00 to 8.00

Recall and state the measured pIC50 for CNC(=O)C(C(=O)NO)N(C)C(=O)c1ccc(-c2ccc3nn(C)cc3c2)cc1 (centres unmarked) . 7.00 to 8.00

Recall and state the measured pIC50 for CNC(=O)C(C(=O)NO)N(C)C(=O)c1ccc(C#Cc2ccc(CN3CC4(COC4)C3)cc2)cc1 (centres unmarked) . > 8.00

Recall and state the measured pIC50 for O=C(NC(C(=O)NO)C(=O)NCC1CCCO1)c1ccc(-c2ccc(OCCO)cc2)cc1 (centres unmarked) . > 8.00

Recall and state the measured pIC50 for O=C(NC(C(=O)NO)C(=O)NCc1cncs1)c1ccc(-c2ccc(OCCO)cc2)cc1 (centres unmarked) . > 8.00

Recall and state the measured pIC50 for CN(C)C(=O)CNC(=O)C(C(=O)NO)N(C)C(=O)c1ccc(-c2ccccc2)cc1 (centres unmarked) . < 7.00

Recall and state the measured pIC50 for CNC(=O)C(C(=O)NO)N(C)C(=O)c1ccc(C#Cc2ccc(CN(C)C)cc2)cc1 (centres unmarked) . 7.00 to 8.00

Recall and state the measured pIC50 for CNC(=O)C(C(=O)NO)N(C)C(=O)c1ccc(C#Cc2ccc(CN(CCO)CCO)cc2)cc1 (centres unmarked) . > 8.00

Recall and state the measured pIC50 for CNC(=O)C(C(=O)NO)N(C)C(=O)c1ccc(-c2ccccc2)cc1C (centres unmarked) . < 7.00

Recall and state the measured pIC50 for CNC(=O)C(C(=O)NO)N(C)C(=O)c1ccc(-c2ccc(C(C)(C)O)cc2)cc1 (centres unmarked) . 7.00 to 8.00

---
Recall and state the measured pIC50 for CNC(=O)C(C(=O)NO)N(C)C(=O)c1ccc(C#Cc2ccc(C(C)N)cc2)cc1 (centres unmarked) . 7.00 to 8.00

Recall and state the measured pIC50 for CCCCCNc1ccc(-c2ccc(C(=O)N(C)C(C(=O)NC)C(=O)NO)cc2)cn1 (centres unmarked) . 7.00 to 8.00

Recall and state the measured pIC50 for CNC(=O)C(C(=O)NO)N(C)C(=O)c1ccc(-c2ccc(OCCCCOC)cc2)cc1 (centres unmarked) . > 8.00

Recall and state the measured pIC50 for CNC(=O)C(C(=O)NO)N(C)C(=O)c1ccc(-c2cccc(NC)c2)cc1 (centres unmarked) . 7.00 to 8.00

Recall and state the measured pIC50 for CNC(=O)C(C(=O)NO)N(C)C(=O)c1ccc(-c2ccc(C)cc2F)cc1 (centres unmarked) . > 8.00

Recall and state the measured pIC50 for CNC(=O)C(C(=O)NO)N(C)C(=O)c1ccc(C#Cc2ccccc2)cn1 (centres unmarked) . < 7.00

Recall and state the measured pIC50 for CNC(=O)C(NC(=O)c1ccc(-c2ccc(OCCO)cc2)cc1)C(=O)NO (centres unmarked) . > 8.00

---

Reported values of IC50 for individual entries
System Tested: Pseudomonas aeruginosa LpxC enzyme (Pseudomonas aeruginosa (strain ATCC 15692 / DSM 22644 / CIP 104116 / JCM 14847 / LMG 12228 / 1C / PRS 101 / PAO1))
Procedure Details: biochemical
Format: biochemical
Condition Notes: inhibitory activity on Pseudomonas aeruginosa LpxC enzyme, class symbols A/B/C; read-out: Enzyme inhibitory activity

Here is how some compounds turned out for IC50.
Recall and state the measured IC50 for CNC(=O)C(C(=O)NO)N(C)C(=O)c1ccc(C#Cc2ccc(OCCN3CCCOCC3)cc2)cc1 (centres unmarked) . < 10 nM

Recall and state the measured IC50 for CNC(=O)C(NC(=O)c1ccc(-c2ccc(OCCCN3CCCOCC3)cc2)cc1)C(=O)NO (centres unmarked) . < 10 nM

Recall and state the measured IC50 for CNC(=O)C(C(=O)NO)N(C)C(=O)c1ccc(-c2ccc(OCCCN(C)Cc3ccccc3)cc2)cc1 (centres unmarked) . < 10 nM

Recall and state the measured IC50 for CNC(=O)C(C(=O)NO)N(C)C(=O)c1ccc(-c2ccc(OCc3ccc(N4CCN(C)CC4)cc3)cc2)cc1 (centres unmarked) . < 10 nM

Recall and state the measured IC50 for CN(C)CCNC(=O)C(NC(=O)c1ccc(-c2ccc(OCCO)cc2)cc1)C(=O)NO (centres unmarked) . > 100 nM

Recall and state the measured IC50 for CNC(=O)C(C(=O)NO)N(C)C(=O)c1ccc(OC(F)(F)F)cc1 (centres unmarked) . > 100 nM

---
Recall and state the measured IC50 for CNC(=O)C(C(=O)NO)N(C)C(=O)c1ccc(-c2ccncc2F)cc1 (centres unmarked) . 10 to 100 nM

Recall and state the measured IC50 for O=C(NC(C(=O)NO)C(=O)NCc1cocn1)c1ccc(-c2ccc(OCCO)cc2)cc1 (centres unmarked) . < 10 nM
